Examples of compounds with documented solubility at 20 h, 10000 µM follow.
assay: physchem; settings: JP2 fluid, pH 6.8

Sample answers from the record:
>>> df
                                   compound          experimental_readout    result
0  COc1cc(CCc2cnc(Nc3ccc(N4CCC(N5CCN(C)CC5)CC4)c(OC)c3)nc2)c(F)c(OC)c1  solubility at 20 h, 10000 µM  ≥ 100 µM
1  COc1cc(OC)cc(C(=O)Nc2cnc(Nc3ccc(N4CCC(N5CCN(C)CC5)CC4)c(OC)c3)nc2)c1  solubility at 20 h, 10000 µM  ≥ 100 µM
2  CCNS(=O)(=O)c1ccccc1Nc1nc(Nc2ccc(N3CCC(N4CCN(C)CC4)CC3)c(OC)c2)ncc1CCc1cc(OC)cc(OC)c1  solubility at 20 h, 10000 µM    < 1 µM

Using the record for "COc1cc(CCc2cnc(Nc3ccc(N4CCC(N5CCN(C)CC5)CC4)c(OC)c3)nc2)cc(OC)c1" , report its solubility at 20 h, 10000 µM. ≥ 100 µM
